# System: MDA-MB-231
# ASSAY PROCEDURE: Cytotoxicity against human MDA-MB-231 cells at 10 uM by SRB assay
# Format: functional

# STRUCTURE AS SMILES, TESTED TARGET, growth, % of control at 10 µM (%)
rows = [
    ("CC(=O)OC[C@H]1O[C@@H](n2cc(-c3cc(C)no3)c(=O)[nH]c2=O)C[C@@H]1OC(C)=O", "MDA-MB-231", 106),
    ("CCCCCCCCc1cc(-c2cn([C@H]3C[C@H](O)[C@@H](CO)O3)c(=O)[nH]c2=O)on1", "MDA-MB-231", 96.7),
    ("CCc1ccc(Cn2cc(-c3cn([C@H]4C[C@H](OC(C)=O)[C@@H](COC(C)=O)O4)c(=O)[nH]c3=O)nn2)cc1", "MDA-MB-231", 97.7),
    ("CC(=O)OC[C@H]1O[C@@H](n2cc(-c3cc(-c4ccc(C(C)C)cc4)no3)c(=O)[nH]c2=O)C[C@@H]1OC(C)=O", "MDA-MB-231", 83.2),
]

Origin of the recorded values: ChEMBL document CHEMBL1153465
